# credit: PubChem BioAssay (NCI)

// values below are reported growth inhibition
# TEST_SUMMARY: NCI Yeast Anticancer Drug Screen. Data for the mlh1 rad18 strain (AID 175)
# EXPERIMENTAL_CONTEXT: S. cerevisiae mlh1 rad18 strain growth inhibition; at 50.0 µM; hits give high values
This is part of a sample that, as a whole, favours compounds with a hit. Of some 79,000 tested, about 15% had one in any assay.
Hi! Could you send only the number? It should be in %, unit omitted.

INSERT INTO results (compound, readout_number) VALUES
  ('CN1CCS(=O)(=O)NC(Cc2ccccc2)C(=O)N2CCCC2C1=O (stereo not given)', -8.5),
  ('O=C(NCCNC(=O)c1cccc([N+](=O)[O-])c1O)c1cccc([N+](=O)[O-])c1O', 11.8),
  ('O=[N+]([O-])c1ccc(N=Cc2ccccc2)cc1', 5.8);

Exercise: Given the entry CCCC1CCCC1C (stereo not given) , report its measured growth inhibition.
Solution: -1.85

Exercise: Given the entry O=C1CC2C3CC(Br)C4C3CC2C14 (stereo not given) , report its measured growth inhibition.
Solution: 4.75

Exercise: Given the entry CCCC/C(CC)=N\N=C(/CC)CCCC , report its measured growth inhibition.
Solution: 17.5

Exercise: Given the entry OCc1cc2ccccc2c2c3c(ccc12)OCO3 , report its measured growth inhibition.
Solution: 15.9

Exercise: Given the entry NC1=NN(c2ccccc2)C(=O)C1/C(=N\NC(=O)c1cc2ccccc2cc1O)C(=O)Nc1ccc(Cl)c(Cl)c1 (stereo not given) , report its measured growth inhibition.
Solution: 21.1

Exercise: Given the entry COC(=O)c1cc2ccc(O)c(O)c2cn1 , report its measured growth inhibition.
Solution: 24.9

Exercise: Given the entry CC(C)(C)OC(=O)NC(Cc1ccccc1)NC(=O)NC(=O)OCc1ccccc1 (stereo not given) , report its measured growth inhibition.
Solution: -27.1

Exercise: Given the entry COC(=O)c1nnn(-c2cccc(Cl)c2)c1N , report its measured growth inhibition.
Solution: 20.4

Exercise: Given the entry COc1cc2c[n+](C)c3c(c2cc1OC)Cc1cc2c(cc1-3)OCO2 , report its measured growth inhibition.
Solution: 6.25

Exercise: Given the entry CCOC(=O)c1ccccc1S(=O)(=O)c1ccccc1C(=O)OCC , report its measured growth inhibition.
Solution: 10.4

Exercise: Given the entry CCCc1cc(=O)oc2c3c(c4c(c12)OC(C)(C)CC4)O[C@H](C)C(C)C3O (stereo not given in full) , report its measured growth inhibition.
Solution: 35

Exercise: Given the entry CC(C)(C)c1cc(Br)c(O)c(CN(Cc2cc(C(C)(C)C)cc(Br)c2O)C2CCCCC2)c1 , report its measured growth inhibition.
Solution: 1.35

Exercise: Given the entry O=S1(=O)CC2C3CC(Oc4ccccc4)C(C3)C2C1 (stereo not given) , report its measured growth inhibition.
Solution: -6.5

Exercise: Given the entry ClC(=Nc1ccccc1)c1cc(N2CCOCC2)ccn1 , report its measured growth inhibition.
Solution: 14
